ASSAYED TARGET: T1, human PD-1 (soluble PD-1 protein, R&D Systems) (human, UniProt Q15116 25-170, limits assumed)
T1 construct: the kinetics paragraphs say only 'PD-1' / 'antigen'; also called hPD-1; soluble PD-1 immunogen
T1 sequence (Q15116 25-170 limits assumed): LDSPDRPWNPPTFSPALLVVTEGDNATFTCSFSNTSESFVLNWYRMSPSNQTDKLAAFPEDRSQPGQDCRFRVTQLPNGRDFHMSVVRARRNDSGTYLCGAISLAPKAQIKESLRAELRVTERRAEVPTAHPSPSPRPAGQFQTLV
ASSAY NOTES: array SPR (Carterra), mAb captured, PD-1 as analyte
VALUE KIND: kon (M⁻¹ s⁻¹)
Report the figure in M⁻¹ s⁻¹ without appending any unit label.

Below, each entry is followed by its recorded kon result.
INSERT INTO results (binder, value_kind, value_observed) VALUES
  ('A2 (antibody, V domains shown, Tested as full-length mAb expressed in CHO cells; also called antibody A2; L2H2) VH: QVQLVESGGGVVQPGRSLRLSCAASGFTFSSYGMHWVRQAPGKGLEWVALISYDGSNKYYADSVKGRFTISRDNSKNTLYLQMNSLRAEDTAVYYCARGGYFDPYGDYYYGMDVWGQGTTVTVSS VL: DIQMTQSPSSLSASVGDRVTITCRASQAIRNDLGWFQQKPGKAPKRLIYAASSLQSGVPLRFSGSGSGTEFTLTISSLQPEDFATYYCLQHNSFPWTFGQGTKVEIKR', 'kon', 80000),
  ('A9 (antibody, V domains shown, Tested as full-length mAb expressed in CHO cells; also called antibody A9; L9H9) VH: QVQLVESGGGVVQPGRSLRLSCAASGFTFSNYGMHWVRQAPGKGLEWVAVIWYDGTNKFYADSVKGRFTISRDNSKNTLYLQMNSLRAEDTAVYYCATNSDDYWGQGTLVTVSS VL: AIQMTQSPSSLSASVGDRVTITCRASQDIRNDLGWYQQKPGKAPKLLIYAASLLRSGVPSRFSGSGSGTDFTLTISSLQPEDFATYYCLQDNNYPRTFGQGTKVEIK', 'kon', 32000);

In the following, a different binder is considered.
Enquiry: Field request: kon | item: A10 (antibody, V domains shown, Tested as full-length mAb expressed in CHO cells; also called antibody A10; L10H10) VH: QVQLVQSGAEVKKPGASVKVSCKASGYTFAIYGISWVRQAPGQGLEWMGWISAYSDNSNYAQKLQGRVTMTTDTSTSTAYMELRSLRSDDTAVYYCVRDGSHGDYYYGMDVWGQGTTVTVSS VL: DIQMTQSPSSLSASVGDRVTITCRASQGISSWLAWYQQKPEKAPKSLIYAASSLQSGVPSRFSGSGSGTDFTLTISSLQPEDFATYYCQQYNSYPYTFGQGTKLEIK
Return: 6600
